# TARGET: human CYP17 (Homo sapiens (Human))
# Sequence (P05093 whole entry): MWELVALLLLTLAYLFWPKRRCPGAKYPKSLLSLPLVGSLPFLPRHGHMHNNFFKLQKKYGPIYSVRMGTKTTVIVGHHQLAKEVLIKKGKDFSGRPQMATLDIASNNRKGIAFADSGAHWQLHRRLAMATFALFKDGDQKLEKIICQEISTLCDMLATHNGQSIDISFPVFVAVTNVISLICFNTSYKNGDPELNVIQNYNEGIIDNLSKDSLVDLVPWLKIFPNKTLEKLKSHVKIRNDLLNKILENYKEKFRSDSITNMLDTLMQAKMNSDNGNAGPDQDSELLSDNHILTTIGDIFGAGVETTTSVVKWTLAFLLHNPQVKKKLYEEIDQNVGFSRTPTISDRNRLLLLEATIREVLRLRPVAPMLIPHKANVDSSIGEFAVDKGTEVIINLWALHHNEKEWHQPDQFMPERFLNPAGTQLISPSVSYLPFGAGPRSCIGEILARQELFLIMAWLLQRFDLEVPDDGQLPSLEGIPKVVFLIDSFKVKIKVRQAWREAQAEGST
# TEST METHOD NOTES: CYP17 inhibition assay (membrane fraction of E. coli expressing human CYP17, substrate progesterone)
# Type: biochemical
# EXPERIMENTAL PARAMETERS: 25 μM, inhibitor concentration 2.0 μM, read-out: inhibition (%) CYP 17
# Protocol: Recombinant E. coli pJL17/OR coexpressing human CYP17 and rat NADPH-P450-reductase were grown and stored as described by Ehmer et al. (J. Steroid Biochem. Mol. Biol., 2000, 75, 57-63) […] After that spheroplasts were sonicated on ice (pulse 20 s on, 30 s off, five times), using a sonicator Sonopuls HD60 (Bandelin, Berlin, Germany) at maximum power. […] Protein concentration was determined by the method of Lowry. […]
inhibition at 2 µM values for the compounds below.

- COMPOUND: "COc1ccc(-c2ccc(Cn3ccnc3)cn2)cc1OC [Compound 14]"
  inhibition at 2 µM: "2%"
- COMPOUND: "c1csc(-c2ncccc2Cn2ccnc2)c1 [Compound 36]"
  inhibition at 2 µM: "0%"

Now examine the next entry.
Param item = c1ccc(N(c2ccccc2)c2ccc(-c3ccc(Cn4ccnc4)cn3)cc2)cc1 [Compound 22] ; retrieve measured inhibition at 2 µM.
2%
